Molecular target: Pyruvate kinase (Leishmania mexicana, UniProt Q27686)
Sequence (Q27686 whole entry): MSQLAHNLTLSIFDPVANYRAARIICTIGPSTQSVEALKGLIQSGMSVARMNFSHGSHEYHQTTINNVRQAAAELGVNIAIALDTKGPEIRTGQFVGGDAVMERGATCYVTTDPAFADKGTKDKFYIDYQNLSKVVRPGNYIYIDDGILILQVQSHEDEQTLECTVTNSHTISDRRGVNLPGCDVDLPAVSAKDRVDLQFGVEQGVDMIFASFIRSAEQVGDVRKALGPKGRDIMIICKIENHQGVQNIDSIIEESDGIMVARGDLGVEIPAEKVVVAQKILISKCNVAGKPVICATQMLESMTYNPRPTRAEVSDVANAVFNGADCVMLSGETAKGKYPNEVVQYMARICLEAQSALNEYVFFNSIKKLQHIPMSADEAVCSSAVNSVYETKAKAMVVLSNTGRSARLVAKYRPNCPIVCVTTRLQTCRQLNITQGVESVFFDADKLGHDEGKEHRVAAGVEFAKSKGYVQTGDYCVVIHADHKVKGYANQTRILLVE
PROPERTY_MEASURED: IC50 (µM)

> print(dat)
                                   compound  property.measured  test.result
1  OC[C@H]1O[C@H](CN[C@H]2C[C@@H]3CC[C@@H]2C3)[C@@H](O)[C@@H]1O               IC50         1500
2  OC[C@H]1O[C@H](CNC2CCCCCC2)[C@@H](O)[C@@H]1O               IC50           71
3  OC[C@H]1O[C@H](CNC2CCC2)[C@@H](O)[C@@H]1O               IC50         4300
4  CCCC(C)NC[C@H]1O[C@H](CO)[C@@H](O)[C@@H]1O (some centres undefined)               IC50         2500
5  OC[C@H]1O[C@H](CNC2CCCC2)[C@@H](O)[C@@H]1O               IC50         4100
6  OC[C@H]1O[C@H](CNC2CCCc3ccccc32)[C@@H](O)[C@@H]1O (some centres undefined)               IC50         1200
7  CC(C)[C@H](C)NC[C@H]1O[C@H](CO)[C@@H](O)[C@@H]1O               IC50         2300
8  C[C@H](NC[C@H]1O[C@H](CO)[C@@H](O)[C@@H]1O)c1ccc2ccccc2c1               IC50         1500
9  O=C(Nc1cccc([N+](=O)[O-])c1)[C@H]1O[C@H](CNC2CCCCCC2)[C@@H](O)[C@@H]1O               IC50           53

* * *

Target: Pyruvate kinase (Leishmania mexicana)
Sequence (whole entry): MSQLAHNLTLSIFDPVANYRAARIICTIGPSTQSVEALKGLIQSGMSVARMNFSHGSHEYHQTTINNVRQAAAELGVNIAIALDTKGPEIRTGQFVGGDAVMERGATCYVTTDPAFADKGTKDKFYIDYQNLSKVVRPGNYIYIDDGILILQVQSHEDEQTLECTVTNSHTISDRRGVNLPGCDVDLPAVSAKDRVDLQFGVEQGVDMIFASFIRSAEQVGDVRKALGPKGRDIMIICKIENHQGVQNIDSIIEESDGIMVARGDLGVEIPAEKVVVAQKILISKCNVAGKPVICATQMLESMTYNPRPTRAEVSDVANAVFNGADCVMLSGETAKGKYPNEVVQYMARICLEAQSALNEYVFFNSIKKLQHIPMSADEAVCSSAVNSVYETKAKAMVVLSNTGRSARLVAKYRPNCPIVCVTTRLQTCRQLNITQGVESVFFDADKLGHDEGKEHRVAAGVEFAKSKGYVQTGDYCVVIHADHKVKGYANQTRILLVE
Experiment: Inhibition of Leishmania mexicana pyruvate kinase assessed as enzyme residual activity at 5 mM
PROPERTY_MEASURED: Activity

> print(dat)
                                    molecule  property.measured  test.result
 1  CCC(CO)NC[C@H]1O[C@H](CO)[C@@H](O)[C@@H]1O (some centres undefined)           Activity          90%
 2  OC[C@H]1O[C@H](CN[C@@H]2C[C@@H]3CC[C@@H]2C3)[C@@H](O)[C@@H]1O           Activity          47%
 3  C[C@H](NC[C@H]1O[C@H](CO)[C@@H](O)[C@@H]1O)c1ccc(Cl)cc1           Activity          58%
 4  OC[C@H]1O[C@H](CNCc2ccc(Cl)cc2)[C@@H](O)[C@@H]1O           Activity          81%
 5  CC(C)CCC(C)NC[C@H]1O[C@H](CO)[C@@H](O)[C@@H]1O (some centres undefined)           Activity         115%
 6  C[C@@H](NC[C@H]1O[C@H](CO)[C@@H](O)[C@@H]1O)c1ccc(Cl)cc1           Activity          84%
 7  Cc1ccc(CNC[C@H]2O[C@H](CO)[C@@H](O)[C@@H]2O)cc1           Activity          90%
 8  CCCC(C)NC[C@H]1O[C@H](CO)[C@@H](O)[C@@H]1O (some centres undefined)           Activity          26%
 9  OC[C@H](Cc1ccccc1)NC[C@H]1O[C@H](CO)[C@@H](O)[C@@H]1O           Activity          72%
10  OC[C@H]1O[C@H](CN[C@H]2c3ccccc3C[C@H]2O)[C@@H](O)[C@@H]1O           Activity         103%
11  O=C(NC1CCCCCC1)[C@H]1O[C@H](CNCc2ccc(Cl)c(Cl)c2)[C@@H](O)[C@@H]1O           Activity        88.2%
12  CC(CCCC(C)(C)O)NC[C@H]1O[C@H](CO)[C@@H](O)[C@@H]1O (some centres undefined)           Activity         125%
13  Cc1ccc(CNC[C@H]2O[C@H](CO)[C@@H](O)[C@@H]2O)c(C)c1           Activity         103%
14  O=C(Nc1cccc([N+](=O)[O-])c1)[C@H]1O[C@H](CNC2CCCCCC2)[C@@H](O)[C@@H]1O           Activity         7.6%
15  C[C@@H](NC[C@H]1O[C@H](CO)[C@@H](O)[C@@H]1O)c1ccc(F)cc1           Activity          53%
16  OC[C@H]1O[C@H](CNCc2cccc(C(F)(F)F)c2)[C@@H](O)[C@@H]1O           Activity         105%
17  O=C(NCc1ccccc1)[C@H]1O[C@H](CNC2CCCCCC2)[C@@H](O)[C@@H]1O           Activity        11.5%
18  OC[C@H]1O[C@H](CNC2CCC2)[C@@H](O)[C@@H]1O           Activity          43%
19  OC[C@H]1O[C@H](CNCc2cccc(F)c2)[C@@H](O)[C@@H]1O           Activity         100%
20  OC[C@H]1O[C@H](CNC2CCCCCC2)[C@@H](O)[C@@H]1O           Activity          19%
21  OC[C@H]1O[C@H](CN[C@@H]2c3ccccc3C[C@@H]2O)[C@@H](O)[C@@H]1O           Activity          60%
22  OC[C@H]1O[C@H](CNCc2ccc(F)cc2)[C@@H](O)[C@@H]1O           Activity         107%
23  OC[C@H]1O[C@H](CNCc2ccccc2Cl)[C@@H](O)[C@@H]1O           Activity          71%
24  Cc1cccc(CNC[C@H]2O[C@H](CO)[C@@H](O)[C@@H]2O)c1           Activity          89%
25  C[C@@H](NC[C@H]1O[C@H](CO)[C@@H](O)[C@@H]1O)c1ccc2ccccc2c1           Activity          34%
26  CC(C)[C@@H](C)NC[C@H]1O[C@H](CO)[C@@H](O)[C@@H]1O           Activity          86%
27  Cc1ccc(CNC[C@H]2O[C@H](CO)[C@@H](O)[C@@H]2O)cc1C           Activity          85%
28  OC[C@H]1O[C@H](CNC2CCCC2)[C@@H](O)[C@@H]1O           Activity          52%
29  COC[C@H](C)NC[C@H]1O[C@H](CO)[C@@H](O)[C@@H]1O           Activity          82%
30  OC[C@H]1O[C@H](CN[C@H]2C[C@@H]3CC[C@@H]2C3)[C@@H](O)[C@@H]1O           Activity          19%
31  OC[C@H]1O[C@H](CNC2Cc3ccccc3C2)[C@@H](O)[C@@H]1O           Activity          49%
32  COc1ccc([C@@H](C)NC[C@H]2O[C@H](CO)[C@@H](O)[C@@H]2O)cc1           Activity          25%
33  OC[C@H]1O[C@H](CNC2CCCCC2)[C@@H](O)[C@@H]1O           Activity          83%
34  CC(CCc1ccccc1)NC[C@H]1O[C@H](CO)[C@@H](O)[C@@H]1O (some centres undefined)           Activity          95%
35  CC(C)C[C@@H](CO)NC[C@H]1O[C@H](CO)[C@@H](O)[C@@H]1O           Activity          73%
36  OC[C@@H](Cc1ccccc1)NC[C@H]1O[C@H](CO)[C@@H](O)[C@@H]1O           Activity          97%
37  C[C@H](NC[C@H]1O[C@H](CO)[C@@H](O)[C@@H]1O)c1ccc2ccccc2c1           Activity          30%
38  C[C@H](NC[C@H]1O[C@H](CO)[C@@H](O)[C@@H]1O)c1ccc(F)cc1           Activity          36%
39  O=C(Nc1ccc([N+](=O)[O-])cc1)[C@H]1O[C@H](CNC2CCCCCC2)[C@@H](O)[C@@H]1O           Activity        12.5%
